Tested on: influenza A H1N1 virus
Conditions: 200 µM peptide, 48 hr post-treatment, A549
observation-type: Neuraminidase activity normalized to vehicle

CPEP127: peptide of the viral peptide library; sequence page not shown (LVKPTVYVYSR)    0,2557
YFADLLI [CPEP50]    0,2471
CPEP64: peptide of the viral peptide library; sequence page not shown (CCFHCQVCFIT)    0,0708
IVISDSEEE [CPEP121]    1,0697

Request - read-out Neuraminidase activity normalized to vehicle | tested on influenza A H1N1 virus | substance GRPPLPPKQK [CPEP41]
0,8561

Request - read-out Neuraminidase activity normalized to vehicle | tested on influenza A H1N1 virus | substance ARARALARGAGPANSV [CPEP47]
1,0179

###

Assay: PK parameters in mice
Type: in vivo, male Swiss (CD-1) mice
Details: male, Swiss (CD-1), plasma; mouse, po 10 mg/kg
observation-type: Cmax (ng/mL)
Answer with a number only, understood to be in ng/mL.

Bench note: what Cmax did O=C(Nc1ccc(Cl)cc1)c1c(NC(=O)C2CCCCC2C(=O)O)sc2c1CCC2 (stereo not shown) [dEF384] show?
31300

###

System: HCV replicon
Format: cell-based
Conditions: normalized mean of HCV replicon readout
Class membership depends on HCV Norm MEAN alone; the intervals are 1: < 0.2; 2: ≥ 0.2 and < 0.6; 3: ≥ 0.6

Just checking, what class would you give PKKKRKV [CPEP56] here?
1

###

Recorded solubility kinetic at 30 min by entry
Assay: Kinetic solubility
Type: physicochemical
Details: PBS pH 7.4 buffer, pH 7.4, aqueous buffer, kinetic from dmso stock
Answer with a number only, understood to be in µM.

Check out these entries, answers already filled in.
CCOC(=O)c1c(NC(=O)C2CCCCC2C(=O)O)sc2c1CCC(C(C)(C)C)C2 (stereo not drawn) [dEF2586]    173
O=C(Nc1ccc(Cl)cc1)c1c(NC(=O)C2CCCCC2C(=O)O)sc2c1CCC2 (stereo not drawn) [dEF384]    74
O=C(Nc1scc(C2CCc3ccccc3C2)c1C(=O)O)c1ccccc1 (racemic) [dEF2905]    48

Shifting focus to the compound that follows.
Bench note: what solubility kinetic at 30 min did COc1ccc(C(=O)Nc2sc3c(c2C(=O)O)CCC(C)(C)C3)cc1OC [dEF2788] show?
104

###

Test system: HCV replicon
Format: cell-based
Conditions: normalized mean of HCV replicon readout
No end group written: not given here.
observation-type: HCV Norm MEAN
Give the value as a plain number.

Bench note: what HCV Norm MEAN did RKSASMS [CPEP82] show?
0.267

Bench note: what HCV Norm MEAN did EPLDLPPIIQ [CPEP45] show?
1.078

Bench note: what HCV Norm MEAN did CPEP64: peptide of the viral peptide library; sequence page not shown (CCFHCQVCFIT) show?
1.72

Bench note: what HCV Norm MEAN did DDLYEEV [CPEP111] show?
0.2545

Bench note: what HCV Norm MEAN did CPEP83: peptide of the viral peptide library; sequence page not shown (LHGLSAFSLHSYS) show?
0.4141

Bench note: what HCV Norm MEAN did SEWQRDQFLSQVK [CPEP95] show?
0.2824

###

Experiment: in vivo
Conditions: male, Sprague Dawley, rat, 50 mg/kg, 50 mg/kg per os, 2 h, read-out: Liver:Plasma Ratio
observation-type: Kp
Give the value as a plain number.

Bench note: what Kp did O=C(Nc1scc(C2CCc3ccccc3C2)c1C(=O)O)c1ccccc1 (stereo not shown) show?
0.91
